target: rat mGlu2 SNAP-tagged receptor (rat, UniProt P31421 19-872, SNAP tag labelled with SNAP-Lumi4-Tb); test: TR-FRET on HEK-293 cells with SNAP-tagged rat mGlu2, anti-6His-d2; active conformation
Sequence (P31421 19-872): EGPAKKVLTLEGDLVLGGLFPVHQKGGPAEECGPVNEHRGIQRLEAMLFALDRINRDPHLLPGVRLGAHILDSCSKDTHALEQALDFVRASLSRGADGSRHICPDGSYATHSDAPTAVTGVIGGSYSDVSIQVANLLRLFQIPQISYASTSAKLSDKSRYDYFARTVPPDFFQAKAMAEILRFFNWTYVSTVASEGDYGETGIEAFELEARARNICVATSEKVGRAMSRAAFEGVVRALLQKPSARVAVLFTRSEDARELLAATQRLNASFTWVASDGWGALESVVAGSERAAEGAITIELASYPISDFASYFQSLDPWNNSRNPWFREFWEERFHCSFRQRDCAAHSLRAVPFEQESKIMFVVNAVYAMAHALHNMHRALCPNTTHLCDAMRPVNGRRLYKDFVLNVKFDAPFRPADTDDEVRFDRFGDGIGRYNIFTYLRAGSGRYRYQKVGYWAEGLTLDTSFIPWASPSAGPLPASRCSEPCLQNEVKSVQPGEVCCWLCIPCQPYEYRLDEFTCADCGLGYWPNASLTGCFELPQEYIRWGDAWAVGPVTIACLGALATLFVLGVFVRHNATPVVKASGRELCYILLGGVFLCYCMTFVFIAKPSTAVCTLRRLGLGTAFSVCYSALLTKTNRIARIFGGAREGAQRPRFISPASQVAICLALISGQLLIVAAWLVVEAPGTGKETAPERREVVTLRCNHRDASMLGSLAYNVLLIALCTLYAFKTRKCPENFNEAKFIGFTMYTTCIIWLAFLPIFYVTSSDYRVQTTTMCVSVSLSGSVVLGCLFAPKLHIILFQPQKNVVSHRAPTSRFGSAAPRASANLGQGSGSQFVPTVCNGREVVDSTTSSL
Item-by-item account of pKd
Express the result in pKd but write the number alone.

binder	unit.of.measure	value
IGF-1201 (IGF-1168 GS IGF-1159) (bispecific antibody) QVQLVQSGGGLVQAGGSLRLSCAASVRFFSINTMGWYRQAPGKQRELVADITSSGSTNYADSGKGRFTISRDNAKNTVYLQMNRLKPEDTAVYYCHADYKYTTHNTAWGQGTQVTVSSGGGGSGGGGSGGGGSQVQLVQSGGGLVQAGGSLRLSCAASGRTFSSFAMAWFRQAPGKEREFVAAISWSGSTGHADSVKGRFTITRDNAKNTVFLQMNSLKPEDTAVYYCALGKGSSYYYSPSGYDYWGQGTQVTVSS	pKd	9.34
IGF-1159 nanobody (VHH) VHH: QVQLVQSGGGLVQAGGSLRLSCAASGRTFSSFAMAWFRQAPGKEREFVAAISWSGSTGHADSVKGRFTITRDNAKNTVFLQMNSLKPEDTAVYYCALGKGSSYYYSPSGYDYWGQGTQVTVSS	pKd	8.46

Query binder follows.
Measured pKd, biparatopic IGF1202 (construct IGF1168-linker sequence L1-IGF1159) (bispecific antibody) QVQLVQSGGGLVQAGGSLRLSCAASVRFFSINTMGWYRQAPGKQRELVADITSSGSTNYADSGKGRFTISRDNAKNTVYLQMNRLKPEDTAVYYCHADYKYTTHNTAWGQGTQVTVSSEPKIPQPQPKPQPQPQPQPQPKPQPKPEPQVQLVQSGGGLVQAGGSLRLSCAASGRTFSSFAMAWFRQAPGKEREFVAAISWSGSTGHADSVKGRFTITRDNAKNTVFLQMNSLKPEDTAVYYCALGKGSSYYYSPSGYDYWGQGTQVTVSSLEHHHHHH : 9.27
